System: OVCAR-3
Assay: NCI-60 antiproliferative screen (SRB)
Assay type: cell-based, human
Conditions: Homo sapiens; 10 µM single dose, 48 h; OVCAR-3 (Ovarian); read-out: Growth inhibition (%)
readout.kind: inhibition at 10 µM (%)

compound	meas.value
O=C1Nc2ccc(Cl)cc2C1=Cc1ccc(OCc2ccccn2)cc1 (mixture of isomers)	42.7
O=C1Nc2cc(Cl)ccc2C1=Cc1ccc(OCc2cccnc2)cc1 (mixture of isomers)	61.8
O=C1Nc2ccc(F)cc2C1=Cc1ccc(OCc2ccccn2)cc1 (mixture of isomers)	8.17
O=C1Nc2ccccc2C1=Cc1ccc(OCc2cccnc2)cc1 (mixture of isomers)	-9.24
O=C1Nc2cc(Cl)ccc2C1=Cc1ccc(OCc2ccccn2)cc1 (mixture of isomers)	6.16
O=C1Nc2ccc(F)cc2C1=Cc1ccc(OCc2cccnc2)cc1 (mixture of isomers)	9.05
O=C1Nc2ccccc2C1=Cc1ccc(OCc2ccccn2)cc1 (mixture of isomers)	18.2
O=C1Nc2cc(Cl)ccc2C1=Cc1ccc(OCc2ccncc2)cc1 (mixture of isomers)	53
O=C1Nc2ccc(F)cc2C1=Cc1ccc(OCc2ccncc2)cc1 (mixture of isomers)	39.2
O=C1Nc2ccc(Cl)cc2C1=Cc1ccc(OCc2ccncc2)cc1 (mixture of isomers)	67.4
O=C1Nc2ccccc2C1=Cc1ccc(OCc2ccncc2)cc1 (mixture of isomers)	21.5
O=C1Nc2ccc(Cl)cc2C1=Cc1ccc(OCc2cccnc2)cc1 (mixture of isomers)	-10.9

* * *

Tested on: SK-MEL-5
Assay: NCI-60 antiproliferative screen (SRB)
Type: cell-based, human
Conditions: five-dose, 48 h; SK-MEL-5; read-out: LC50 (the source's name)

compound	CC50 / µM
O=C1Nc2cc(Cl)ccc2C1=Cc1ccc(OCc2cccnc2)cc1 (mixture of isomers)	71.5

* * *

Test system: IGROV1
Assay: NCI-60 antiproliferative screen (SRB)
Type: cell-based, human
Settings: Homo sapiens, IGROV-1; 10 µM single dose, 48 h; IGROV1 (Ovarian); read-out: Growth inhibition (%)
Attribute: inhibition at 10 µM

molecule	inhibition at 10 µM (%)
O=C1Nc2ccc(F)cc2C1=Cc1ccc(OCc2ccncc2)cc1 (mixture of isomers)	64.7
O=C1Nc2cc(Cl)ccc2C1=Cc1ccc(OCc2ccncc2)cc1 (mixture of isomers)	67.9
O=C1Nc2ccc(F)cc2C1=Cc1ccc(OCc2ccccc2)cc1 (mixture of isomers)	2.92
O=C1Nc2ccc(F)cc2C1=Cc1ccc(OCc2ccccn2)cc1 (mixture of isomers)	6.35

* * *

# pIC50 listing for each entry below
Target: CDK2 (Homo sapiens)
pIC50: −log10 of the molar value.
readout.kind: pIC50

compound	measured.target	meas.value
CN1CCN(Cc2ccc(NC(=O)c3n[nH]cc3Nc3ncnc4[nH]ccc34)cc2)CC1	CDK2 (Homo sapiens)	8.70
O=C1Nc2cc(Cl)ccc2C1=Cc1ccc(OCc2cccnc2)cc1 (mixture of isomers)	CDK2 (Homo sapiens)	8.09

* * *

Tested on: MDA-MB-231
Test: NCI-60 antiproliferative screen (SRB)
Format: cell-based, human
Conditions: Homo sapiens; 10 µM single dose, 48 h; MDA-MB-231 (Breast); read-out: Growth inhibition (%)

compound	unit.descriptor	inhibition at 10 µM
O=C1Nc2ccc(Cl)cc2C1=Cc1ccc(OCc2ccccn2)cc1 (mixture of isomers) [Compound 5g]	%	78.3
O=C1Nc2cc(Cl)ccc2C1=Cc1ccc(OCc2ccncc2)cc1 (mixture of isomers) [Compound 5p]	%	32.7
O=C1Nc2ccc(Cl)cc2C1=Cc1ccc(OCc2cccnc2)cc1 (mixture of isomers) [Compound 5k]	%	9.08
O=C1Nc2ccc(F)cc2C1=Cc1ccc(OCc2ccccc2)cc1 (mixture of isomers) [Compound 5b]	%	2.43
O=C1Nc2ccc(Cl)cc2C1=Cc1ccc(OCc2ccncc2)cc1 (mixture of isomers) [Compound 5o]	%	24.9
O=C1Nc2ccccc2C1=Cc1ccc(OCc2cccnc2)cc1 (mixture of isomers) [Compound 5i]	%	35.4

* * *

Tested on: SF-268
Assay: NCI-60 antiproliferative screen (SRB)
Type: cell-based, human
Conditions: Homo sapiens; 10 µM single dose, 48 h; SF-268 (CNS); read-out: Growth inhibition (%)
Examples of compounds with documented inhibition at 10 µM follow.

compound	inhibition at 10 µM, %
O=C1Nc2ccc(F)cc2C1=Cc1ccc(OCc2ccncc2)cc1 (mixture of isomers)	38.8
O=C1Nc2cc(Cl)ccc2C1=Cc1ccc(OCc2ccccn2)cc1 (mixture of isomers)	23.2
O=C1Nc2ccccc2C1=Cc1ccc(OCc2ccccc2)cc1 (mixture of isomers)	-1.74
O=C1Nc2ccccc2C1=Cc1ccc(OCc2ccccn2)cc1 (mixture of isomers)	27.3
O=C1Nc2ccc(F)cc2C1=Cc1ccc(OCc2ccccc2)cc1 (mixture of isomers)	5.43
O=C1Nc2cc(Cl)ccc2C1=Cc1ccc(OCc2ccccc2)cc1 (mixture of isomers)	5.55
O=C1Nc2ccc(Cl)cc2C1=Cc1ccc(OCc2cccnc2)cc1 (mixture of isomers)	5.1
O=C1Nc2ccc(Cl)cc2C1=Cc1ccc(OCc2ccccc2)cc1 (mixture of isomers)	3.26

* * *

System: LOX IMVI
Test: NCI-60 antiproliferative screen (SRB)
Assay type: cell-based, human
Settings: five-dose, 48 h; LOX IMVI; read-out: LC50 (the source's name)

compound	measured.target	CC50, µM
O=C1Nc2cc(Cl)ccc2C1=Cc1ccc(OCc2cccnc2)cc1 (mixture of isomers)	LOX IMVI	96.6

* * *

Test system: UO-31
Test: NCI-60 antiproliferative screen (SRB)
Type: cell-based, human
Conditions: Homo sapiens; 10 µM single dose, 48 h; UO-31 (Renal); read-out: Growth inhibition (%)
# label = Criterion met if inhibition at 10 µM >= 20% else Criterion not met

compound	class.name
O=C1Nc2ccc(F)cc2C1=Cc1ccc(OCc2ccccn2)cc1 (mixture of isomers) [Compound 5f]	Criterion met
O=C1Nc2ccccc2C1=Cc1ccc(OCc2ccccc2)cc1 (mixture of isomers) [Compound 5a]	Criterion not met
O=C1Nc2cc(Cl)ccc2C1=Cc1ccc(OCc2ccncc2)cc1 (mixture of isomers) [Compound 5p]	Criterion met
O=C1Nc2ccccc2C1=Cc1ccc(OCc2ccccn2)cc1 (mixture of isomers) [Compound 5e]	Criterion met
O=C1Nc2ccc(Cl)cc2C1=Cc1ccc(OCc2ccccc2)cc1 (mixture of isomers) [Compound 5c]	Criterion met

* * *

System: MOLT-4
Assay: NCI-60 antiproliferative screen (SRB)
Assay type: cell-based
Conditions: Homo sapiens; 10 µM single dose, 48 h; MOLT-4 (Leukemia); read-out: Growth inhibition (%)
Below, each entry is listed with its recorded inhibition at 10 µM.
readout.kind: inhibition at 10 µM (%)

compound	readout.kind	unit.descriptor	meas.value
O=C1Nc2ccc(F)cc2C1=Cc1ccc(OCc2cccnc2)cc1 (mixture of isomers)	inhibition at 10 µM	%	88.5
O=C1Nc2ccc(Cl)cc2C1=Cc1ccc(OCc2cccnc2)cc1 (mixture of isomers)	inhibition at 10 µM	%	52.6
O=C1Nc2ccccc2C1=Cc1ccc(OCc2ccccc2)cc1 (mixture of isomers)	inhibition at 10 µM	%	2.73
O=C1Nc2ccc(F)cc2C1=Cc1ccc(OCc2ccccn2)cc1 (mixture of isomers)	inhibition at 10 µM	%	3.55
O=C1Nc2ccccc2C1=Cc1ccc(OCc2ccccn2)cc1 (mixture of isomers)	inhibition at 10 µM	%	62.5
O=C1Nc2cc(Cl)ccc2C1=Cc1ccc(OCc2ccncc2)cc1 (mixture of isomers)	inhibition at 10 µM	%	79
O=C1Nc2cc(Cl)ccc2C1=Cc1ccc(OCc2cccnc2)cc1 (mixture of isomers)	inhibition at 10 µM	%	98.1
O=C1Nc2ccccc2C1=Cc1ccc(OCc2ccncc2)cc1 (mixture of isomers)	inhibition at 10 µM	%	78.5
O=C1Nc2cc(Cl)ccc2C1=Cc1ccc(OCc2ccccc2)cc1 (mixture of isomers)	inhibition at 10 µM	%	0.86
O=C1Nc2ccc(Cl)cc2C1=Cc1ccc(OCc2ccccc2)cc1 (mixture of isomers)	inhibition at 10 µM	%	3.28
O=C1Nc2ccccc2C1=Cc1ccc(OCc2cccnc2)cc1 (mixture of isomers)	inhibition at 10 µM	%	70
O=C1Nc2ccc(F)cc2C1=Cc1ccc(OCc2ccccc2)cc1 (mixture of isomers)	inhibition at 10 µM	%	-0.05
O=C1Nc2ccc(Cl)cc2C1=Cc1ccc(OCc2ccccn2)cc1 (mixture of isomers)	inhibition at 10 µM	%	53.1
O=C1Nc2ccc(Cl)cc2C1=Cc1ccc(OCc2ccncc2)cc1 (mixture of isomers)	inhibition at 10 µM	%	81.2
O=C1Nc2ccc(F)cc2C1=Cc1ccc(OCc2ccncc2)cc1 (mixture of isomers)	inhibition at 10 µM	%	76.7
O=C1Nc2cc(Cl)ccc2C1=Cc1ccc(OCc2ccccn2)cc1 (mixture of isomers)	inhibition at 10 µM	%	61.5

* * *

System: SK-OV-3
Experiment: NCI-60 antiproliferative screen (SRB)
Assay type: cell-based, human
Details: Homo sapiens; 10 µM single dose, 48 h; SK-OV-3 (Ovarian); read-out: Growth inhibition (%)
# inhibition at 10 µM listing for each entry below
readout.kind: inhibition at 10 µM (%)

compound	meas.value
O=C1Nc2ccccc2C1=Cc1ccc(OCc2ccccc2)cc1 (mixture of isomers)	-5.78
O=C1Nc2ccc(Cl)cc2C1=Cc1ccc(OCc2ccccc2)cc1 (mixture of isomers)	-1.7
O=C1Nc2ccc(F)cc2C1=Cc1ccc(OCc2ccccc2)cc1 (mixture of isomers)	0.16
O=C1Nc2ccc(Cl)cc2C1=Cc1ccc(OCc2ccncc2)cc1 (mixture of isomers)	11.4
O=C1Nc2cc(Cl)ccc2C1=Cc1ccc(OCc2ccccn2)cc1 (mixture of isomers)	4.39
O=C1Nc2ccccc2C1=Cc1ccc(OCc2cccnc2)cc1 (mixture of isomers)	13.2
O=C1Nc2ccccc2C1=Cc1ccc(OCc2ccncc2)cc1 (mixture of isomers)	9.38
O=C1Nc2cc(Cl)ccc2C1=Cc1ccc(OCc2ccncc2)cc1 (mixture of isomers)	15.5
O=C1Nc2cc(Cl)ccc2C1=Cc1ccc(OCc2cccnc2)cc1 (mixture of isomers)	32.2

Every entry's value here was drawn from paper PMC11124822.
